Collected TGI values appear next to each entry.
- Tested on: OVCAR-5 ovarian
- run description: NCI tumour cell line growth inhibition, 48 h
Where a SMILES comes first, the peptide text is derived from it. Bridges are numbered along the chain shown (N, C = ends). [ ]: non-standard residue; d: D form. The star is where a group is joined. ξ: configuration not given here. ξNMe2Val = CC(C)C(C(=O)*)N(C)C; NMeV = CN[CH](C(=O)O)C(C)C; Aib = CC(C)(N)C(=O)O; NHBn = c1ccc(CN*)cc1; βAla = NCCC(=O)O
quantity name: TGI

# molecule, target, quantity name, val
measured = [
    ("OCC1C(OCc2ccccc2)C(OCc2ccccc2)C(OCc2ccccc2)CN1Cc1ccccc1 (stereo not drawn)", "OVCAR-5 ovarian", "TGI", "> 100 µM"),
    ("CC(C)(C)C1=CC(=C(P(=O)(O)O)P(=O)(O)O)C=C(C(C)(C)C)C1=O", "OVCAR-5 ovarian", "TGI", "> 50 µM"),
    ("CCOc1cc(C2CC(c3ccc(NS(=O)(=O)c4cc([N+](=O)[O-])ccc4C)cc3)=NN2S(=O)(=O)c2cc([N+](=O)[O-])ccc2C)ccc1O (stereo not drawn)", "OVCAR-5 ovarian", "TGI", "> 100 µM"),
    ("NCCSSCc1ccccc1CSSCCN", "OVCAR-5 ovarian", "TGI", "> 100 µM"),
    ("COC1/C=C(C)/C=C/C(C)/C=C/C(=O)OC(/C(C)=C/C=C(\\C)CNC(=O)[C@H](CO)NC=O)C(C)/C=C/C=C/C(OC)CC/C=C(C)/C=C/C1 (stereo partly drawn)", "OVCAR-5 ovarian", "TGI", "> 1 µM"),
    ("CN(Cc1ccccc1)Cn1ccnc1", "OVCAR-5 ovarian", "TGI", "> 100 µM"),
    ("CC(C)C(NC(=O)C(C(C)C)N(C)C)C(=O)N(C)C(C(=O)N1CCCC1C(=O)N1CCCC1C(=O)NCc1ccccc1)C(C)C (stereo not drawn) (ξNMe2Val-V[NMeV]PP-NHBn; configuration not given here)", "OVCAR-5 ovarian", "TGI", "0.206 µM"),
    ("CN1C(=O)C2(C)SC1(c1ccccc1)C1C(=O)N(c3ccccc3)C(=O)C12 (stereo not drawn)", "OVCAR-5 ovarian", "TGI", "> 100 µM"),
    ("Cc1ccc2c(=O)cc(-c3sccc3C)[nH]c2n1", "OVCAR-5 ovarian", "TGI", "> 100 µM"),
    ("CC(=O)Nc1ccc2c3c(cc(O)c2c1)N(C(=O)CCCC(=O)N1CC(CCl)c2c1cc(O)c1cc(NC(C)=O)ccc21)CC3CCl (stereo not drawn)", "OVCAR-5 ovarian", "TGI", "0.276 µM"),
    ("O=c1nc2n3c4c(cccc4nc-2c(=O)[nH]1)CCC3", "OVCAR-5 ovarian", "TGI", "> 100 µM"),
    ("COC(=O)c1cc2c(=O)n(C)c3ccccc3n2c1C(=O)OC", "OVCAR-5 ovarian", "TGI", "> 100 µM"),
    ("Fc1ccc(-c2c(-c3ccncc3)nc3n2CCS3)cc1", "OVCAR-5 ovarian", "TGI", "> 25 µM"),
    ("Cc1ccc(C)c(N2C(=O)C(=O)C(c3nc4ccccc4s3)/C(=N/N)C2=O)c1 (stereo not drawn)", "OVCAR-5 ovarian", "TGI", "> 100 µM"),
    ("COc1cc2cc(OC(C)=O)c3cc4c(cc3c2c(OC)c1OC)OCO4", "OVCAR-5 ovarian", "TGI", "> 100 µM"),
    ("CC(C)(C)[Si](OC1CCOC1=O)(c1ccccc1)c1ccccc1 (stereo not drawn)", "OVCAR-5 ovarian", "TGI", "> 100 µM"),
    ("CSc1ccc2c(cc1=O)[C@@H](NC(=O)c1cccc([N+](=O)[O-])c1)CCc1cc(O)c(O)c(O)c1-2", "OVCAR-5 ovarian", "TGI", "> 100 µM"),
    ("CC1(C)NC(=O)C(NC(=O)C(N)CC(=O)O)CCCCNC(=O)CCNC1=O (stereo not drawn) (H-DK[Aib][βAla]; lactam 2-C; configuration not given here)", "OVCAR-5 ovarian", "TGI", "> 100 µM"),
    ("CCn1cc2c(=O)n3ncn(-c4ccc(Br)cc4)c3nc2n1", "OVCAR-5 ovarian", "TGI", "> 100 µM"),
    ("Cc1ccc2c(c1)SC1=Nc3sc4cc(C)ccc4[n+]3CN12", "OVCAR-5 ovarian", "TGI", "> 100 µM"),
    ("O=C1Nc2c(ccc(Cl)c2Cl)/C1=C/c1cc(Br)c(O)c(Br)c1", "OVCAR-5 ovarian", "TGI", "> 74 µM"),
    ("CCCCN1C(=O)C2Cc3c([nH]c4ccccc34)C(c3cccc(O)c3)N2C1=O (stereo not drawn)", "OVCAR-5 ovarian", "TGI", "33 µM"),
    ("N#C/C(=C\\c1cc(O)cc(O)c1)C(N)=O", "OVCAR-5 ovarian", "TGI", "> 100 µM"),
    ("NC(=O)NNC(=O)CCn1[nH]c(=O)c(Cl)c(Cl)c1=O", "OVCAR-5 ovarian", "TGI", "> 100 µM"),
    ("COc1ccc(/C=C\\c2cc(OC)c(OC)c(OC)c2)cc1OCC(=O)Nc1nc2ccc(F)cc2s1", "OVCAR-5 ovarian", "TGI", "> 100 µM"),
    ("CC(C)(O)C(O)COc1c2c(cc3oc(=O)ccc13)OCO2 (stereo not drawn)", "OVCAR-5 ovarian", "TGI", "> 100 µM"),
    ("CC(C)(C)C(=O)OCOP(=O)(NCc1ccccc1)C1CCCN(O)C1=O (stereo not drawn)", "OVCAR-5 ovarian", "TGI", "> 100 µM"),
    ("O=C(CCC(=O)Nc1ccc(Cl)c(Cl)c1)Cc1nc2ccccc2o1", "OVCAR-5 ovarian", "TGI", "> 100 µM"),
    ("O=C(O)CSc1n[nH]c(=O)[nH]c1=O", "OVCAR-5 ovarian", "TGI", "> 100 µM"),
    ("Cc1ccc([N+](=O)[O-])cc1S(=O)(=O)Nc1ccc(C2=NN(S(=O)(=O)c3cc([N+](=O)[O-])ccc3C)C(c3ccccc3)C2)cc1 (stereo not drawn)", "OVCAR-5 ovarian", "TGI", "> 100 µM"),
    ("CCc1cccc(C(C)C)c1NC(=O)C(=O)C1C(=O)Nc2ccccc2S1=O (stereo not drawn)", "OVCAR-5 ovarian", "TGI", "> 100 µM"),
    ("C=C(Cl)C(Cl)(CBr)CCC(Br)C(C)(C)Br (stereo not drawn)", "OVCAR-5 ovarian", "TGI", "25.4 µM"),
    ("Cc1cc(S(=O)(=O)NC2=NCc3nc4ccccc4n32)c(S)cc1Cl", "OVCAR-5 ovarian", "TGI", "65.1 µM"),
    ("NS(=O)(=O)OC[C@H]1C[C@@H](Nc2ccnc3cc(-c4cccc(SC(F)(F)F)c4)nn23)[C@H](O)[C@@H]1O", "OVCAR-5 ovarian", "TGI", "2.83 µM"),
    ("CC(=O)O[C@@H]1C2CCC3C(CC[C@@]4(C)C3CC[C@@H]4C(C)N(C)C)[C@@]2(C)CC[C@@H]1NC(=O)C=C(C)C (stereo partly drawn)", "OVCAR-5 ovarian", "TGI", "14.1 µM"),
    ("Cc1c(C)c2ccc(OCC(O)COC(C)C)c(C)c2oc1=O (stereo not drawn)", "OVCAR-5 ovarian", "TGI", "> 100 µM"),
    ("COC(COC(N)=O)C1=C(N2CC2)C(=O)C(C)=C(N2CC2)C1=O (stereo not drawn)", "OVCAR-5 ovarian", "TGI", "0.71 µM"),
    ("Cc1cc(NC2=CC(=O)C(=O)c3ccccc32)no1", "OVCAR-5 ovarian", "TGI", "18.1 µM"),
]

---

- Tested on: SK-MEL-28 melanoma
- run description: NCI tumour cell line growth inhibition, 48 h; in the data active = GI50 below about 0.43 µM; inactive = the rest
Possible outcomes: true (active), false (inactive)

# molecule, qualitative label
data = [
    ("NS(=O)(=O)OC[C@H]1C[C@@H](Nc2ccnc3cc(-c4cccc(SC(F)(F)F)c4)nn23)[C@H](O)[C@@H]1O", "true"),
    ("CN[C@H]1CN(c2ccc3c(=O)c(C(=O)O)cn(-c4nccs4)c3n2)C[C@@H]1OC", "false"),
    ("COc1cc(/C=C2\\CC3C4CC=C5C[C@@H](OC(C)=O)CC[C@]5(C)C4CC[C@]3(C)C2=O)ccc1OCCN1CCCCC1 (some centres undefined)", "false"),
    ("CC(=O)O[C@@H]1C2CCC3C(CC[C@@]4(C)C3CC[C@@H]4C(C)N(C)C)[C@@]2(C)CC[C@@H]1NC(=O)C=C(C)C (some centres undefined)", "false"),
]

Values from PubChem BioAssay (NCI)
